- target_entity: T1, single-site biotinylated human TL1A (human, UniProt O95150 72-251, single-site biotinylated (site not stated))
- T1 construct: construct used for biotinylation not described
- T1 sequence: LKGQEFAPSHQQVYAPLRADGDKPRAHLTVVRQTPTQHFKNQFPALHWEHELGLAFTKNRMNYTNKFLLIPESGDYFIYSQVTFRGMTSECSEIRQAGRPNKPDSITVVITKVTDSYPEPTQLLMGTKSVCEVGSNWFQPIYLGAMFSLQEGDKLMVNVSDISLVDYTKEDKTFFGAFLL
- protocol_summary: competition ELISA: antibody dilutions pre-incubated with biotinylated human TL1A (1 µg/ml), added to plate-coated DcR3/Fc; bound TL1A detected with streptavidin-HRP; blocked partner DcR3/Fc [bottom panel]
experimental_endpoint: IC50 (read off the curve)

Please report the recorded IC50 (read off the curve) for 320-587 (antibody, name in Kabat numbering, V domains shown, human IgG1, lambda) VH: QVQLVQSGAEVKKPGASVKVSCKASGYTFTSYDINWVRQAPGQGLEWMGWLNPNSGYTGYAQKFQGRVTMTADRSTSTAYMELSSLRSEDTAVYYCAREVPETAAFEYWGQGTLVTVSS VL: QSVLTQPPSVSGAPGQRVTISCTSSSSDIGAGLGVHWYQQLPGTAPKLLIEGYYNRPSGVPDRFSGSKSGTSASLTITGLLPEDEGDYYCQSWDGTLSALFGGGTKLTVLG .
~1 µg/mL

Recorded values, source patent US20170081400A1.
